B1: NF2 (merlin) isoform 7, human, full length (507 aa, lacks exons 2-3 = isoform-1 residues 39-121; exon-16 C-terminus), P35240-4 (parent)
chain: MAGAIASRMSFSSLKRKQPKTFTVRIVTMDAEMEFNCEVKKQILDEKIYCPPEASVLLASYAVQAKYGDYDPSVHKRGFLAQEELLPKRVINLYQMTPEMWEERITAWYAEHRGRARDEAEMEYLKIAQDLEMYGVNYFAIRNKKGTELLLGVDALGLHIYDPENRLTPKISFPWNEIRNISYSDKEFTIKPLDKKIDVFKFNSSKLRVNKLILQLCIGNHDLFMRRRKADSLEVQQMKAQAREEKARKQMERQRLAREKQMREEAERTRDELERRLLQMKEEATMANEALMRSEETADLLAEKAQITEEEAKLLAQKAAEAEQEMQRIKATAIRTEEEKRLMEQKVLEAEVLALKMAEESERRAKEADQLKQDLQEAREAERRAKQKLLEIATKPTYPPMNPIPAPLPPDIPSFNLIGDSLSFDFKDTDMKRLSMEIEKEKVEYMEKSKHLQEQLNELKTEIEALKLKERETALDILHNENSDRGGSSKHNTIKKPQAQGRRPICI

variants of: B1; test: reverse yeast two-hybrid deep mutational scan (rY2H-seq): NF2 isoform 7 mutant library as bait mated with wild-type prey strains; selection on medium lacking adenine for non-interacting pairs; NextSeq paired-end sequencing; enrichment vs …; settings: with EMILIN1 (elastin microfibril interfacer 1), Q9Y6C2; yeast diploids after mating (RBait_S3 x RPrey_S3), 30 °C, selection for reporter genes on NB agar; human ABL2 co-expressed as the kinase-dead K35M mutant …; HIGHER = WEAKER BINDING (the opposite of display enrichments): higher = stronger loss of interaction: reverse Y2H selects yeast in which bait and prey do NOT interact (growth without adenine), so a …; hits-only table; scale: rY2H score; numbering: uniprot, sequence starts at 1

Mutation code | enrichment
A302E | 4.06
V74L | 3.98
P400A | 2.14
K246A | 2.24
R25L | 3.54
K88R | 1.95
R293A | 1.56
S60L | 2.18
P163K | 5.55
E338A | 3.66
E323K | 1.53
P52E | 9.88
A385L | 1.74
R471E | 8.81
I171K | 2.56
D69A | 2.53
T147E | 4.29
A319K | 3.24
V74C | 2.3
K15A | 6.29
K366A | 3.27
L348E | 2.15
